# maps each entry to its Radioactivity Incorp.
- EXPERIMENTAL SYSTEM: GalNAc kinase (Sus scrofa, UniProt A0A287BB25)
- Construct: This enzyme was purified about 1400-fold from the cytosolic fraction of pig kidney; from tissue; host or cells: pig kidney cytosol
- Sequence (A0A287BB25 1-458): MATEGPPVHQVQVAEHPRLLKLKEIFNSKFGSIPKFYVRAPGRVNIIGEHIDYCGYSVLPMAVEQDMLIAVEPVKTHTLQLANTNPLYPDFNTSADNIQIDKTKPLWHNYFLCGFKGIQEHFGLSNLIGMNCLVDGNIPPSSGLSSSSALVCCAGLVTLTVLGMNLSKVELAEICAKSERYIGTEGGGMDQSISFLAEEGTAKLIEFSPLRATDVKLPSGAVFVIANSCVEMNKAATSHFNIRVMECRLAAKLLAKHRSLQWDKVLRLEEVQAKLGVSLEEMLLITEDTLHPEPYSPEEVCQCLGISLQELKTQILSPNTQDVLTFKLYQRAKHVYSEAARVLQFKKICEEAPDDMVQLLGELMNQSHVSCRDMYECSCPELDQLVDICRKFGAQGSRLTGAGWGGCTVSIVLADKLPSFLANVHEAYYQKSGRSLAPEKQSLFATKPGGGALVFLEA
- TEST: Sugar specificity of GalNAc kinase
- Format: biochemical, pig
- CONDITIONS: 8 μl enzyme; labeled sugars of same specific activity
Only the number, expressed in cpm, is required.

# COMPOUND, Radioactivity Incorp. / cpm
measured = [
    ("N[C@H]1C(O)O[C@H](CO)[C@@H](O)[C@@H]1O (stereo partly drawn)", 206),
    ("CC(=O)N[C@@H]1C(O)O[C@H](CO)[C@@H](O)[C@@H]1O (stereo partly drawn)", 89),
    ("N[C@H]1C(O)O[C@H](CO)[C@H](O)[C@@H]1O (stereo partly drawn)", 468),
    ("O=C[C@H](O)[C@@H](O)[C@@H](O)[C@H](O)CO", 442),
]

Next, consider the following compound.
Challenge: Give the value of Radioactivity Incorp. reported for the following: CC(=O)N[C@H]1C(O)O[C@H](CO)[C@@H](O)[C@@H]1O (stereo partly drawn)
Response given: 147

###

- EXPERIMENTAL SYSTEM: yeast galactokinase (Saccharomyces cerevisiae)
- Construct: purchased Sigma Chemical Co
- TEST: Sugar specificity of yeast galactokinase
- Type: biochemical
- CONDITIONS: 4 ul enzyme
# maps each entry to its log10(Radioactivity Incorporated)
In our notation, the value equals log10 of Radioactivity Incorporated in cpm.

Some molecules with recorded log10(Radioactivity Incorporated):
# MOLECULE, PARAMETER MEASURED, VALUE MEASURED
rows = [
    ("CC(=O)N[C@H]1C(O)O[C@H](CO)[C@@H](O)[C@@H]1O (some centres unmarked)", "log10(Radioactivity Incorporated)", 1.92),
    ("O=C[C@H](O)[C@@H](O)[C@@H](O)[C@H](O)CO", "log10(Radioactivity Incorporated)", 3.88),
    ("N[C@H]1C(O)O[C@H](CO)[C@@H](O)[C@@H]1O (some centres unmarked)", "log10(Radioactivity Incorporated)", 2.18),
]

Challenge: Tell me its log10(Radioactivity Incorporated) on yeast galactokinase (Saccharomyces cerevisiae): CC(=O)N[C@H]1C(O)O[C@H](CO)[C@H](O)[C@@H]1O (some centres unmarked)
Response given: 1.92

Challenge: Tell me its log10(Radioactivity Incorporated) on yeast galactokinase (Saccharomyces cerevisiae): N[C@H]1C(O)O[C@H](CO)[C@H](O)[C@@H]1O (some centres unmarked)
Response given: 2.64

###

- EXPERIMENTAL SYSTEM: yeast galactokinase (Saccharomyces cerevisiae, UniProt P04385)
- Construct: purchased Sigma Chemical Co
- Sequence (P04385 whole entry): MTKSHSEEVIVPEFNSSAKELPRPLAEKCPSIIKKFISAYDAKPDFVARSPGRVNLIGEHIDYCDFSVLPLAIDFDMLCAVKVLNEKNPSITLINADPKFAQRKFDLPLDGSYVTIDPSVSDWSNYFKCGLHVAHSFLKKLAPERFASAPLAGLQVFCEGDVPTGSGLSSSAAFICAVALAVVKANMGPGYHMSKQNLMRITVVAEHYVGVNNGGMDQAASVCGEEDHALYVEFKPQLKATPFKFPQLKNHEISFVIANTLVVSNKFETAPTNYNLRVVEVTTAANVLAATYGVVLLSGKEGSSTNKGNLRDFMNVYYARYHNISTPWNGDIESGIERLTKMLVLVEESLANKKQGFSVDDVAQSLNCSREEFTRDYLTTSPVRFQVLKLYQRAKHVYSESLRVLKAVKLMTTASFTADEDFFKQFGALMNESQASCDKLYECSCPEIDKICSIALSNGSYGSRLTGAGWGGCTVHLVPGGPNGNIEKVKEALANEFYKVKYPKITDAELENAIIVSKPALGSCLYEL
- TEST: Sugar specificity of yeast galactokinase
- Type: biochemical
- CONDITIONS: 2 ul enzyme, minus 0 ul value
# maps each entry to its Radioactivity Incorporated (Δ cpm)
Show the value, then the unit it is measured in.

Challenge: Give the value of Radioactivity Incorporated (Δ cpm) reported for the following: N[C@H]1C(O)O[C@H](CO)[C@H](O)[C@@H]1O (some centres unmarked)
Response given: 173 cpm

Challenge: Give the value of Radioactivity Incorporated (Δ cpm) reported for the following: CC(=O)N[C@H]1C(O)O[C@H](CO)[C@H](O)[C@@H]1O (some centres unmarked)
Response given: 0 cpm

###

- EXPERIMENTAL SYSTEM: yeast galactokinase (Saccharomyces cerevisiae, UniProt P04385)
- Construct: purchased Sigma Chemical Co
- TEST: Sugar specificity of yeast galactokinase
- Assay type: biochemical
- CONDITIONS: 4 ul enzyme, minus 0 ul value
PARAMETER MEASURED: Radioactivity Incorporated (Δ cpm)
Only the number, expressed in cpm, is required.

Some compounds with recorded Radioactivity Incorporated (Δ cpm):
# COMPOUND, SCALE UNIT, Radioactivity Incorporated (Δ cpm)
records = [
    ("N[C@H]1C(O)O[C@H](CO)[C@@H](O)[C@@H]1O (stereo partly shown)", "cpm", 0),
    ("CC(=O)N[C@H]1C(O)O[C@H](CO)[C@@H](O)[C@@H]1O (stereo partly shown)", "cpm", 10),
    ("CC(=O)N[C@H]1C(O)O[C@H](CO)[C@H](O)[C@@H]1O (stereo partly shown)", "cpm", 11),
]

Challenge: Give the value of Radioactivity Incorporated (Δ cpm) reported for the following: O=C[C@H](O)[C@@H](O)[C@@H](O)[C@H](O)CO
Response given: 7465

###

# maps each entry to its Radioactivity Incorporated (Δ cpm)
- EXPERIMENTAL SYSTEM: yeast galactokinase (Saccharomyces cerevisiae, UniProt P04385)
- Construct: purchased Sigma Chemical Co
- TEST: Sugar specificity of yeast galactokinase
- Assay type: biochemical
- CONDITIONS: 2 ul enzyme, minus 0 ul value
Only the number, expressed in cpm, is required.

Some compounds with recorded Radioactivity Incorporated (Δ cpm):
# COMPOUND, Radioactivity Incorporated (Δ cpm)
measured = [
    ("O=C[C@H](O)[C@@H](O)[C@@H](O)[C@H](O)CO", 6835),
    ("N[C@H]1C(O)O[C@H](CO)[C@@H](O)[C@@H]1O (stereo partly drawn)", 0),
]

Challenge: Give the value of Radioactivity Incorporated (Δ cpm) reported for the following: CC(=O)N[C@H]1C(O)O[C@H](CO)[C@@H](O)[C@@H]1O (stereo partly drawn)
Response given: 60
